target: T1, human CD8A-Fc (recombinant human CD8 alpha fused to Fc fragment of human IgG1) (human, UniProt P01732 22-182, limits assumed); test: SPR on recombinant human CD8 alpha after DFO conjugation, lower affinity population
T1 construct: SPR ligand, captured by goat anti-human Fc; also called hCD8A-Fc; recombinant CD8 alpha; not shown: linker with flag (and polyhistidine) tag and Fc fragment of human IgG1; depends on which of the two constructs was used
T1 sequence (P01732 22-182 limits assumed): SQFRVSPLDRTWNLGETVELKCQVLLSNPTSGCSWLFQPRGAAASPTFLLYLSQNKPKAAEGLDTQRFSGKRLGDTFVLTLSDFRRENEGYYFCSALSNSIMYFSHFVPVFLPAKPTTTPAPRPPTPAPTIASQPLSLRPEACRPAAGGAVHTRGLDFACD
observed-property: kon (M⁻¹ s⁻¹)
// units = M⁻¹ s⁻¹; emit number, no label

Below: 5 binders and their reported kon.
# binder, assay-value
data = [
    ("CD8S366-DFO (designed binder, deferoxamine (DFO) conjugated to the free cysteine introduced by E54C, DFO conjugate of CD8S366) LPAPKNLVVSRVTEDSARLSWTAPDAAFDSFWITYPEWPDPGGEAIVLTVPGSCRSYDLTGLKPGTEYFVVIYGVKGGEIYSPLSAIFTT", 5850),
    ("CD8S365-DFO (designed binder, deferoxamine (DFO) conjugated to the free cysteine introduced by E54C, DFO conjugate of CD8S365) LPAPKNLVVSRVTEDSARLSWTAPDAAFDSFGILYYEPVDSGEAITLPVPGSCRSYDLTGLKPGTEYWVVITGVKGGAPSTPLGTIFTT", 4410),
    ("CD8S370-DFO (designed binder, deferoxamine (DFO) conjugated to the free cysteine introduced by E54C, DFO conjugate of CD8S370) LPAPKNLVVSRVTEDSARLSWTAPDAAFDSFAITYIEKEHIEDGEAIVLTVPGSCRSYDLTGLKPGTEYWVPIWGVKGGANSWPLSAIFTT", 5910),
    ("CD8S369-DFO (designed binder, deferoxamine (DFO) conjugated to the free cysteine introduced by E54C, DFO conjugate of CD8S369) LPAPKNLVVSRVTEDSARLSWAKRPGAFDSFLIQYQESEKVGEAIVLTVPGSCRSYDLTGLKPGTEYTVSIYGVDVKYDIDSRPISSNPLSAIFTT", 2870),
    ("CD8S367-DFO (designed binder, deferoxamine (DFO) conjugated to the free cysteine introduced by E54C, DFO conjugate of CD8S367) LPAPKNLVVSRVTEDSARLSWTAPDAAFDSFAIAYPEWPPQGEAIVLTVPGSCRSYDLTGLKPGTEYFVVIYGVKGGSYSAPLSAIFTT", 10900),
]

Could you now look at the following binder, please?
Please give the documented kon of CD8S368-DFO (designed binder, deferoxamine (DFO) conjugated to the free cysteine introduced by E54C, DFO conjugate of CD8S368) LPAPKNLVVSRVTEDSARLSWTAPDAAFDSFQIAYPEWPPPGEAIVLTVPGSCRSYDLTGLKPGTEYFVIIQGVKGGVESWPLSAIFTT
7320
